TARGET_ENTITY: Neutrophil elastase (Homo sapiens)
Sequence (P08246 whole entry): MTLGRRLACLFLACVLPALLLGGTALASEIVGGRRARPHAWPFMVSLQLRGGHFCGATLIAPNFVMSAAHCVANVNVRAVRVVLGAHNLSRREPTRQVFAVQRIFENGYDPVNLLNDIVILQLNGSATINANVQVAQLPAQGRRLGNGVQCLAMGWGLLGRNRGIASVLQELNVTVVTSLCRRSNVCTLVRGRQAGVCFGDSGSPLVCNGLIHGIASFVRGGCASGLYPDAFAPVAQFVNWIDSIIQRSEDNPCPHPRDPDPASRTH
ASSAY: Inhibition of human neutrophil elastase using AAPV-pNA as substrate preincubated for 15 mins followed by substrate addition and measured every 15 secs for 5 mins
Checkbox rule: IC50 lower than 700 nM = satisfied; IC50 not lower than 700 nM = not satisfied.

These recorded examples may help you get a feel for the data.
INSERT INTO assay_data (molecule, discrete_label) VALUES
  ('CC(C)[C@H](NC(=O)OC(C)(C)C)C(=O)N1CCC[C@H]1C(=O)NC(C(C)(C)C)P(=O)(Oc1ccccc1)Oc1ccccc1 (mixture of isomers)', 'not satisfied'),
  ('CCC(C)C(NC(=O)[C@@H]1CCCN1C(=O)[C@@H](NC(=O)OC(C)(C)C)[C@@H](C)CC)P(=O)(Oc1ccccc1)Oc1ccccc1 (mixture of isomers)', 'not satisfied'),
  ('CC[C@H](C)[C@H](NC(=O)OC(C)(C)C)C(=O)N1CCC[C@H]1C(=O)NC(C(C)C)P(=O)(Oc1ccccc1)Oc1ccccc1 (mixture of isomers)', 'satisfied'),
  ('CCC(C)C(NC(=O)[C@@H]1CCCN1C(=O)[C@@H](NC(=O)OC(C)(C)C)C(C)C)P(=O)(Oc1ccccc1)Oc1ccccc1 (mixture of isomers)', 'satisfied'),
  ('CC(=O)C(=O)C(NC(=O)[C@@H]1CCCN1C(=O)[C@@H](NC(=O)OC(C)(C)C)C(C)C)C(C)C (mixture of isomers)', 'not satisfied');

In plain terms, does CCC(=O)C(=O)C(NC(=O)[C@@H]1CCCN1C(=O)[C@@H](NC(=O)OC(C)(C)C)C(C)C)C(C)C (mixture of isomers) come in under 700 nM for IC50?
not satisfied

In plain terms, does CCC[C@H](NC(=O)OC(C)(C)C)C(=O)N1CCC[C@H]1C(=O)NC(C(C)C)P(=O)(Oc1ccccc1)Oc1ccccc1 (mixture of isomers) come in under 700 nM for IC50?
satisfied

In plain terms, does CCC(C)C(NC(=O)[C@@H]1CCCN1C(=O)[C@@H](NC(=O)OC(C)(C)C)C(C)(C)C)C(=O)c1nc2ccccc2s1 (mixture of isomers) come in under 700 nM for IC50?
not satisfied

* * *

System: Chlamydia trachomatis 434/Bu
ASSAY: Potency index, ratio of JO146 IC50 to compound IC50 for inhibition of recombinant chlamydia trachomatis serovar L2 434/Bu/ATCC VR-902B HtrA expressed in Escherichia coli BL21(DE3) using MeOCoum-ENLHLPLPIIF-NH-DNP as fluorescent mimotope preincubated for 20 mins followed by mimotope addition in presence of fluorophore 7-methoxycoumarin-4-acetic acid by plate reader based fluorescence assay
Calls of active or inactive are those of the source. No cut-off for these calls is given here.
QUANTITY: Ratio IC50

INSERT INTO measurements (compound, target_entity, experimental_value) VALUES
  ('C=CCN(C)C(=O)C(NC(=O)[C@@H]1CCCN1C(=O)[C@@H](NC(=O)OC(C)(C)C)C(C)C)C(C)C (stereo partly drawn)', 'Chlamydia trachomatis 434/Bu', 'inactive'),
  ('CC[C@H](C)[C@H](NC(=O)OC(C)(C)C)C(=O)N1CCC[C@H]1C(=O)NC(C(C)C)P(=O)(Oc1ccccc1)Oc1ccccc1 (mixture of isomers)', 'Chlamydia trachomatis 434/Bu', 14.3),
  ('CCCC(NC(=O)[C@@H]1CCCN1C(=O)[C@@H](NC(=O)OC(C)(C)C)C(C)C)C(=O)c1nccs1 (stereo partly drawn)', 'Chlamydia trachomatis 434/Bu', 'inactive');
